B1: NP_116010.1 (parent)
chain: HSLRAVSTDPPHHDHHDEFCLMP

Variants of: B1
ASSAY_INFO: protein stability index of a GFP-peptide fusion (GPS, HEK-293T) (PSI 1-6); higher = more stable;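 note: lentivirally expressed fusion library, cells FACS-sorted into six equal-sized GFP/DsRed ratio bins, PSI computed from sequencing read fractions per bin weighted by bin number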
EXPERIMENTAL_CONTEXT: c terminus: native
MEASURED_ENDPOINT: protein stability index
Give bare numbers.

>  <MUTATIONS>
L3H

>  <protein stability index>
2.57

$$$$
>  <MUTATIONS>
E18S

>  <protein stability index>
2.19

$$$$

Please give protein stability index for each item listed below.
1. E18G
2. P10E
3. C20I
4. R4I
5. F19G
6. T8S

**A:**
1: 2.48; 2: 2.77; 3: 4.33; 4: 2.92; 5: 2.25; 6: 2.13

Please give protein stability index for each item listed below.
1. T8D
2. P23L
3. L21Y
4. H15S
5. H13D

**A:**
1: 2.53; 2: 3.24; 3: 2.39; 4: 2.76; 5: 3.07

Please give protein stability index for each item listed below.
1. P11G
2. L21I
3. H15A
4. A5W

**A:**
[2.59, 2.56, 2.57, 2.96]

Please give protein stability index for each item listed below.
1. D17W
2. H12V
3. C20D
4. R4A
5. L3V

**A:**
[2.1, 2.73, 3.8, 3.09, 2.75]

Provenance of the data: the supplement of paper PMC10567573
